Tested on: V. cholerae BH1651 luxOD47E, luciferase light induction, 6 h
Experiment: quorum luxo light induction, V. cholerae bh1651 luxod47e, confirmatory dose response (AID 652289)
Active and inactive are the calls of the source. How the calls were made is not given here.
Classes used: True for active, False for inactive

ITEM_SMILES	CLASS_ASSIGNMENT
CCc1ccc2cc3c(NC(=O)c4ccco4)nn(C)c3nc2c1	True
Cc1cc2nc3c(cc2cc1F)c(NC(=O)c1ccco1)nn3C	True
O=C(Nc1nnc(-c2ccc3c(c2)OCCO3)o1)C1CCCCCC1	True
COc1ccccc1-c1nnc(NC(=O)C2CCCCC2)o1	False
O=C(Nc1nnc(-c2cccnc2)o1)C1CCCCC1	True
Cc1ccc2cc3c(NC(=O)C4CCCC4)nn(C)c3nc2c1	True
Cc1cc2cc3c(NC(=O)c4ccco4)nn(C)c3nc2cc1C	True
Cn1nc(NC(=O)c2ccco2)c2cccnc21	True
Cn1nc(NC(=O)c2ccco2)c2cc3ccccc3nc21	True
Cn1nc(NC(=O)c2ccco2)c2ccccc21	True
Cc1cc(F)cc2nc3c(cc12)c(NC(=O)c1ccco1)nn3C	True
COc1ccc2cc3c(NC(=O)c4ccco4)nn(C)c3nc2c1	True

---

Experiment: quorum luxo light induction, V. cholerae bh1651 luxod47e, confirmatory dose response (AID 652289)
Settings: V. cholerae BH1651 luxOD47E, luciferase light induction, 6 h; at 100 µM (top of the series)

COMPOUND	RESULT_UNITS	light induction
O=C(Nc1nnc(-c2ccc3c(c2)OCCO3)o1)C(F)(F)c1ccccc1	%	-0.004
COc1ccc(S(=O)(=O)Nc2nnc(-c3ccc4c(c3)OCCO4)o2)cc1	%	0.005
COc1cccc(-c2nnc(NC(=O)C3CCCCC3)o2)c1	%	-0.005
O=C(Nc1nnc(C2CCCC2)o1)C1CCCCC1	%	-0.015
Cc1ccc2cc3c(NC(=O)c4ccc(C)o4)nn(C)c3nc2c1	%	-0.015
O=C(Nc1nnc(-c2ccncc2)o1)C1CCC1	%	0.055
COc1ccc(-c2nnc(NC(C)=O)o2)cc1	%	0.045
CCn1nnnc1NCc1ccc(C(C)C)cc1	%	-0.004
c1ccc(CNc2nnc(-c3ccc4c(c3)OCCO4)o2)cc1	%	-0.004
CCCCCCCCCC(=O)[C@H](O)CC (racemic)	%	0.014
Cc1ccc2cc3c(NC(=O)c4cc5ccccc5o4)nn(C)c3nc2c1	%	-0.007
O=C(Nc1nnc(-c2ccc3c(c2)OCCO3)o1)C1CC1	%	0.004
C(=N\c1nnc(-c2ccc3c(c2)OCCO3)o1)/c1ccccc1	%	0.005
CN1CCC(C(=O)Nc2nnc(-c3ccc4c(c3)OCCO4)o2)CC1	%	0.052
CN(C)/C=N/c1nnc(-c2ccc3c(c2)OCCO3)o1	%	0.039
